// provenance: PubChem BioAssay (NCATS)

Test: qHTS profiling for inhibitors of Plasmodium falciparum (HB3) proliferation (AID 743324);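 note: 100% = DMSO vehicle wells and 0% = artemisinin-treated control wells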
Conditions: Plasmodium falciparum HB3 blood-stage proliferation; at 28.7 µM (top of the series) unless noted
From the text: Plasmodium falciparum is a virulent malarial parasite that kills 1-2 million people worldwide each year. Transmitted by mosquitoes, the sporozoite form of the parasite enters the blood stream to infect hepatocytes, where they become merozoites that infect red blood cells (erythrocytes). […] Because mature erythrocytes lack DNA, only Plasmodium-derived DNA is detected. […]
Reported values of remaining proliferation (% of control), lower = more inhibition for individual entries
Report only the number, with the unit % understood.

A selection of reference data follows.
[[record]]
compound = "Clc1ccc(Nc2nnc(Cc3ccncc3)c3ccccc23)cc1"
u = "%"
recorded_value = 0.459

[[record]]
compound = "CCN(CC)CCCC(C)Nc1ccnc2cc(Cl)ccc12 (centres undefined)"
u = "%"
recorded_value = 0.178

[[record]]
compound = "Cc1ccc(NC(=O)c2cccc(C(C)(C)C#N)c2)cc1Nc1ccc2ncn(C)c(=O)c2c1"
u = "%"
recorded_value = 7.17

[[record]]
compound = "Nc1nc2[nH]cc(CCc3ccc(C(=O)N[C@@H](CCC(=O)O)C(=O)O)cc3)c2c(=O)[nH]1"
u = "%"
recorded_value = 4.66

[[record]]
compound = "CCOC(=O)N[C@@H]1CC[C@@H]2[C@@H](C1)C[C@H]1C(=O)O[C@H](C)[C@H]1[C@@H]2C=Cc1ccc(-c2cccc(F)c2)cn1"
u = "%"
recorded_value = 0.902


Query: Write down remaining proliferation (% of control), lower = more inhibition measured for item C[C@]12CC[C@H](O)CC1=CC[C@@H]1[C@H]2CC[C@]2(C)C(c3cccnc3)=CC[C@H]12
Response: 24.9

Query: Write down remaining proliferation (% of control), lower = more inhibition measured for item Nc1nccc(-c2ccc3noc(-c4ccc(Cl)cc4)c3c2)n1
Response: 81.1

Query: Write down remaining proliferation (% of control), lower = more inhibition measured for item CCn1c(-c2nonc2N)nc2cnc(Oc3cccc(NC(=O)c4ccc(OCCN5CCOCC5)cc4)c3)cc21
Response: 14.7

###

Tested on: AA1029
Experiment: qHTS profiling for inhibitors of Plasmodium falciparum proliferation (AID 504749); note: nearly all actives have a fitted effect of over 60% in size
Details: P. falciparum in erythrocytes, SYBR Green DNA, 72 h; series mostly up to 28.7 µM
Results filed as inconclusive are left out. Calls of active or inactive are those of the source. Calls follow the shape of the dose curve; as a rule, active = well fitted inhibition curve with a large enough effect; inconclusive = small, poorly fitted or top-dose-only effect; inactive = flat fitted curve, though single readings scatter.
Answer with one of the outcomes TRUE (active), FALSE (inactive)

Worked examples follow.
[[record]]
compound = "Cc1cn[nH]c1"
class = "FALSE"

[[record]]
compound = "CC(c1cc2ccccc2s1)N(O)C(N)=O (stereo not given)"
class = "FALSE"


Query: Any idea what this test logged for COc1ccc2nc(S(=O)Cc3ncc(C)c(OC)c3C)[nH]c2c1 (stereo not given) ?
Response: FALSE

Query: Any idea what this test logged for CN1CCN(CCCN2c3ccccc3Sc3ccc(C(F)(F)F)cc32)CC1 ?
Response: TRUE

###

Assay: qHTS profiling for inhibitors of Plasmodium falciparum (HB3) proliferation (AID 743324);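 note: 100% = DMSO vehicle wells and 0% = artemisinin-treated control wells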
Details: Plasmodium falciparum HB3 blood-stage proliferation; at 28.7 µM (top of the series) unless noted
readout-label: remaining proliferation (% of control), lower = more inhibition (%)
Report only the number, with the unit % understood.

[[record]]
smiles_text = "Cn1cnc2c(F)c(Nc3ccc(Br)cc3Cl)c(C(=O)NOCCO)cc21"
recorded_value = 94.6

[[record]]
smiles_text = "CCOc1cc(C=C2C(=O)N(c3ccccc3)N=C2C)cc(Cl)c1OCC(=O)OC"
recorded_value = 102

[[record]]
smiles_text = "CC(C)(Sc1ccc(CCN(CCCCC2CCCCC2)C(=O)NC2CCCCC2)cc1)C(=O)O"
recorded_value = 92.7

[[record]]
smiles_text = "S=C(NCc1ccc2c(c1)OCO2)N1CCN(c2ncnc3c2oc2ccccc23)CC1"
recorded_value = 28.7

[[record]]
smiles_text = "N#CC[C@H](C1CCCC1)n1cc(-c2ncnc3[nH]ccc23)cn1"
recorded_value = 18.5


Query: Write down remaining proliferation (% of control), lower = more inhibition measured for item Cc1ccc(-n2nc(C(C)(C)C)cc2NC(=O)Nc2ccc(OCCN3CCOCC3)c3ccccc23)cc1
Response: 5.8

Query: Write down remaining proliferation (% of control), lower = more inhibition measured for item Cc1ccnc(NS(=O)(=O)c2ccc(NC(=O)Nc3ccc(S(=O)(=O)Nc4nccc(C)n4)cc3)cc2)n1
Response: 3.95

Query: Write down remaining proliferation (% of control), lower = more inhibition measured for item Cc1c(CCOc2ccc(C(=O)O)cc2)c2cc(Cl)ccc2n1C(c1ccccc1)c1ccccc1
Response: 23.4

Query: Write down remaining proliferation (% of control), lower = more inhibition measured for item CNC(=O)c1ccc(N2C(=S)N(c3ccc(C#N)c(C(F)(F)F)c3)C(=O)C2(C)C)cc1F
Response: 62.8
